- Tested on: MDA-MB-231 breast
- test-protocol: NCI tumour cell line growth inhibition, 48 h
Listed below: log10 of TGI values for each entry.
For clarity, the numbers are log10 values of TGI expressed in µM.

Sample answers from the record:
[[record]]
molecule = "CNC(=O)n1ccc2cc(Oc3ccnc(NC(=O)c4ccc(C5CCN(CCO)CC5)cc4)c3)c(OCCOC)cc21"
assayed_system = "MDA-MB-231 breast"
observed_value = 0.79

[[record]]
molecule = "O=C(Nc1cccc2cnccc12)c1cc2c(cc1Cl)Sc1nccn1S2(=O)=O"
assayed_system = "MDA-MB-231 breast"
observed_value = 1.56

[[record]]
molecule = "COc1ccc(CC(CO)NC(=O)OCc2ccccc2)cc1Oc1ccc(CC(CO)NC(=O)OCc2ccccc2)cc1 (stereo unspecified)"
assayed_system = "MDA-MB-231 breast"
observed_value = 1.56

[[record]]
molecule = "Nc1c2ccccc2nc2c1ccc1ncccc12"
assayed_system = "MDA-MB-231 breast"
observed_value = 1.98

[[record]]
molecule = "Nc1cc2cccc[n+]2c2cc(Cl)ccc12"
assayed_system = "MDA-MB-231 breast"
observed_value = 1.71


log10 of TGI for `C=C1C(=O)O[C@H]2[C@H]1CC/C(COC(=O)NCc1ccccc1OC)=C\CC[C@@]1(C)O[C@@H]21` is 0.54

log10 of TGI for `COc1c(CCC[P+](c2ccccc2)(c2ccccc2)c2ccccc2)cc2c(c1OC)OCO2` is 1.04

log10 of TGI for COc1cc(C2c3cc4c(cc3OC(N3CCCC3)C2C)OCO4)cc(OC)c1OC (stereo unspecified) is 0.97

log10 of TGI for `COC(=O)/C=C/C=C(c1ccccc1)c1ccccc1` is 1.56

log10 of TGI for `C[n+]1c(-c2ccccc2)cc2/c(=C\c3ccc([N+](=O)[O-])cc3)c3ccccc3n21` is 1.21

log10 of TGI for `CN(C)/C=C/c1nnc([N+](=O)[O-])s1` is 1.93
